Origin of measurements: patent US7338958B2

- target: CDK2/CycE (Homo sapiens, UniProt P24941)
- Construct: GST
- test.name: CDK2/CycE Kinase Assay
- measurement.context: histone IIIS substrate, 33P-ATP, 15 minutes at 22° C.
I'd be grateful if you could share measured pIC50 for these entries.
Answers are plain numbers, as −log10 of the molar value.

Here are 3 molecules together with their reported answers.
CC(CO)Sc1nc(Nc2ccc(S(C)(=N)=O)cc2)ncc1Br (racemic) : 8.40
COc1cc(Nc2ncc(Br)c(N[C@H](C)C(C)(C)O)n2)ccc1S(C)(=N)=O (mixture of isomers) : 8.22
CCOC(=O)N=S(C)(=O)c1ccc(Nc2ncc(Br)c(N[C@H](COC)[C@@H](C)O)n2)cc1 (mixture of isomers) : 7.55

Field: pIC50. Fill in for each record below.
1. C[C@@H](Nc1nc(Nc2ccc(S(=N)(=O)CC3CC3)cc2)ncc1Br)C(C)(C)O (mixture of isomers)
2. CN=S(C)(=O)c1ccc(Nc2ncc(Br)c(N[C@H](C)[C@@H](C)O)n2)cc1 (mixture of isomers) [Example 1.29]
3. CC(O)C(C)Sc1nc(Nc2ccc(S(C)(=N)=O)cc2)ncc1Br (racemic)
4. CCC(CO)Sc1nc(Nc2ccc(S(C)(=N)=O)cc2)ncc1Br (racemic)

output:
1. 8.40
2. 8.40
3. 8.10
4. 7.80

====

Task for the reader: assign each of the following molecules its reported IC50.
- target: CDK1/CycB (Homo sapiens, UniProt P06493)
- Construct: GST
- Sequence (P06493 whole entry): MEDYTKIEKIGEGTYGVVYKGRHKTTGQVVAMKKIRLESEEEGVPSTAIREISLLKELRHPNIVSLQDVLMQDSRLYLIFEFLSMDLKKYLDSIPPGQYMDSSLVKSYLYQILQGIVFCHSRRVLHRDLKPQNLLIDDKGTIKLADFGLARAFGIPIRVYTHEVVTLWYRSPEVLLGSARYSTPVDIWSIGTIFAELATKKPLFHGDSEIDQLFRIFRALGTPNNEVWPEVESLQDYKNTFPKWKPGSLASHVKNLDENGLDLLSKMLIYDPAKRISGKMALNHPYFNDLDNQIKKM
- Sequence (P14635 whole entry partner): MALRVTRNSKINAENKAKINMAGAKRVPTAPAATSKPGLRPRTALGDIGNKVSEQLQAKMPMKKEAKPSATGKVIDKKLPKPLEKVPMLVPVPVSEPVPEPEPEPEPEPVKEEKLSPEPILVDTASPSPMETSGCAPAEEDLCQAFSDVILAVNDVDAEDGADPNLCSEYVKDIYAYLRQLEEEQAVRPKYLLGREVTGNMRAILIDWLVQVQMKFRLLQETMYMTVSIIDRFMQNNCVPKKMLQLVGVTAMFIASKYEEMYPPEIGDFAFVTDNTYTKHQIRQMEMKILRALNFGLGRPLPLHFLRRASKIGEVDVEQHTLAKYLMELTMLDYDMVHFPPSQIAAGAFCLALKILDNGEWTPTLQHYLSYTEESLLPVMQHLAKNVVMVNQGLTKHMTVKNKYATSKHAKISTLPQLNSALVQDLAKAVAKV
- test.name: CDK1/CycB Kinase Assay
- measurement.context: histone IIIS substrate, 33P-ATP, 15 minutes at 22° C.
Give bare numbers, in nM.

Some entries whose results are on file:
C[C@@H](O)[C@@H](C)Oc1nc(Nc2ccc(S(=N)(=O)CCO)cc2)ncc1Br (mixture of isomers) [Example 1.21] : 5
CS(=N)(=O)c1ccc(Nc2ncc(Br)c(Nc3ccccc3)n2)cc1 (racemic) [Example 2.3] : 160

Kindly consider the entry below.
input: Item CCOC(=O)N=S(C)(=O)c1ccc(Nc2ncc(Br)c(N[C@H](C)[C@@H](C)O)n2)cc1 (mixture of isomers) [Example 1.32] has what recorded IC50?
output: 16

====

- target: VEGF receptor tyrosine kinase-2 (Homo sapiens, UniProt P35968)
- Construct: GST; made in house; host or cells: baculovirus-infected insect cells (Sf9)
- Sequence (P35968 20-1356): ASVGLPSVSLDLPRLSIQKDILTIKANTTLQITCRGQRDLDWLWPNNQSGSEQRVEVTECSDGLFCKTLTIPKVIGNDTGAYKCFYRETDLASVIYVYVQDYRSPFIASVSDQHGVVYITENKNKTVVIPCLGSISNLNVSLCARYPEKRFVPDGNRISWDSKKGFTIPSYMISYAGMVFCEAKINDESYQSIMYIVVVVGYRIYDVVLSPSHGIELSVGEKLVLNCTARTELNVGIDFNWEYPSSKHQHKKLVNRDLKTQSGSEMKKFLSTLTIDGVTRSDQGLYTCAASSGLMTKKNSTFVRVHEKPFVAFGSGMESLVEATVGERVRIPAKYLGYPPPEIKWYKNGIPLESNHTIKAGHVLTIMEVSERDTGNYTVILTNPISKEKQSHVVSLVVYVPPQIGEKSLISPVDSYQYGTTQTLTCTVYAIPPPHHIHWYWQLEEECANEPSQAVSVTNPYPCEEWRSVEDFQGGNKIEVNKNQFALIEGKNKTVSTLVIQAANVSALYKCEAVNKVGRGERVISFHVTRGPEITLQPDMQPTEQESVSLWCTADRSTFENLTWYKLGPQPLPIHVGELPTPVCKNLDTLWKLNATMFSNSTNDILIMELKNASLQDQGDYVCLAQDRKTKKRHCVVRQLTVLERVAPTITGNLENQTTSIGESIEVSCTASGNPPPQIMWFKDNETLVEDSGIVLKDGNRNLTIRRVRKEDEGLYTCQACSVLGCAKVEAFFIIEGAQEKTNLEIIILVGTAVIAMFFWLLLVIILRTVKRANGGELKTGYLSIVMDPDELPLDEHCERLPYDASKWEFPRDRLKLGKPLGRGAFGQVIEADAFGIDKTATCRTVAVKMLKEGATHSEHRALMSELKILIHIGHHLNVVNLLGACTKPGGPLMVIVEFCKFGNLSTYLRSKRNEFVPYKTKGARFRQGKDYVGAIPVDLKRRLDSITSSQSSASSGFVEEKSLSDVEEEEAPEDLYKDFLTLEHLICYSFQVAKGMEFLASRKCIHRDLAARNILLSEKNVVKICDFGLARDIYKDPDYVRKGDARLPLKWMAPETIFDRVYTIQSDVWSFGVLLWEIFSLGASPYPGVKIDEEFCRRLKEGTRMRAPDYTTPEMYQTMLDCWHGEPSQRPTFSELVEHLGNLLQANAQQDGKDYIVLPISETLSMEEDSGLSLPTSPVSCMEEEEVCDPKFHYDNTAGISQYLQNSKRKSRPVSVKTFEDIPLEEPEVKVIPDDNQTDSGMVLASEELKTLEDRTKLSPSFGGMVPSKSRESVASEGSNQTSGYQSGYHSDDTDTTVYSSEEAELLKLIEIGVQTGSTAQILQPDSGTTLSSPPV
- test.name: VEGF Receptor-2 Kinase Assay
- Assay type: biochemical
- measurement.context: poly-(Glu4Tyr) substrate, 33P-ATP, 10 minutes at 22° C.; read-out: VEGF-R2 IC50
pIC50: −log10 of the molar value.
Rule: pIC50 of 7 or more gives satisfied; anything lower gives not satisfied.

Record excerpt, results attached:
CCOC(=O)N=S(C)(=O)c1ccc(Nc2ncc(Br)c(N[C@H](C)[C@@H](C)O)n2)cc1 (mixture of isomers) : satisfied
C[C@@H](Nc1nc(Nc2ccc(S(=O)(=NS(=O)(=O)CC[Si](C)(C)C)C3CCCC3)cc2)ncc1Br)C(C)(C)O (mixture of isomers) : not satisfied
CCS(=N)(=O)c1ccc(Nc2ncc(Br)c(N[C@H](COC)[C@@H](C)O)n2)cc1 (mixture of isomers) [Example 1.49] : not satisfied
CCOC(=O)N=S(=O)(CC)c1ccc(Nc2ncc(Br)c(N[C@H](COC)[C@@H](C)O)n2)cc1 (mixture of isomers) : not satisfied
CCOC(=O)N=S(C)(=O)c1ccc(Nc2ncc(Br)c(N[C@H](C)[C@@H](C)O)n2)cc1C (mixture of isomers) : satisfied

input: I'd appreciate it if you could say whether C[C@@H](O)[C@@H](C)Oc1nc(Nc2ccc(S(=O)(CCO)=NS(=O)(=O)CC[Si](C)(C)C)cc2)ncc1Br (mixture of isomers) has pIC50 at least equal to 7.
output: not satisfied

input: Has Cc1cc(Nc2ncc(Br)c(N[C@H](C)C(C)(C)O)n2)ccc1S(C)(=N)=O (mixture of isomers) [Example 1.59] a recorded pIC50 greater than or equal to 7?
output: satisfied

input: Quick check, pIC50 >= 7? CCC(CO)Sc1nc(Nc2ccc(S(C)(=N)=O)cc2)ncc1Br (racemic)
output: not satisfied

====

- System: DU 145, hormone-independent human prostate cancer cells
- test.name: Proliferation assay, DU145
- Type: cell-based
- measurement.context: DU-145, 96 h, 4 days incubation, crystal violet
pIC50: −log10 of the molar value.
Tick T if pIC50 is 7 or greater. Tick F if pIC50 is less than 7.

input: Exam item: decide whether the reported pIC50 for C[C@@H](Nc1nc(Nc2ccc(S(=O)(=NS(=O)(=O)CC[Si](C)(C)C)C3CCCC3)cc2)ncc1Br)C(C)(C)O (mixture of isomers) is at least 7.
output: F

input: hey, is pIC50 for this one >= 7? C[C@@H](Nc1nc(Nc2ccc(S(=N)(=O)C3CC3)cc2)ncc1Br)C(C)(C)O (mixture of isomers)
output: T

input: I'd appreciate it if you could say whether CS(=N)(=O)c1ccc(Nc2ncc(Br)c(Nc3ccccc3)n2)cc1 (racemic) has pIC50 at least equal to 7.
output: F

input: Identify whether the reported pIC50 of the following molecule is 7 or greater: CCOC(=O)N=S(C)(=O)c1ccc(Nc2ncc(Br)c(O[C@H](C)[C@@H](C)O)n2)cc1 (mixture of isomers)
output: F

input: For this molecule, is measured pIC50 7 or higher? C[C@@H](Nc1nc(Nc2ccc(S(C)(=N)=O)cc2)ncc1Br)C(C)(C)O (single isomer, unassigned) [Example 1.3]
output: F

input: Threshold query (pIC50 >= 7) on C[C@@H](O)[C@@H](C)Nc1nc(Nc2ccc(S(C)(=N)=O)cc2)ncc1Br (single isomer, unassigned)
output: T

input: Does the reported pIC50 for CCOC(=O)N=S(=O)(CC)c1ccc(Nc2ncc(Br)c(O[C@H](C)[C@@H](C)O)n2)cc1 (mixture of isomers) fall at or above the 7 mark?
output: F

input: Please tell me: is the molecule CN=S(C)(=O)c1ccc(Nc2ncc(Br)c(N[C@H](C)[C@@H](C)O)n2)cc1 (mixture of isomers) at or over 7 in terms of pIC50?
output: F

input: Is the recorded value of pIC50 equal to or greater than 7 for this molecule? C[C@@H](Nc1nc(Nc2ccc(S(=O)(CCO)=NS(=O)(=O)CC[Si](C)(C)C)cc2)ncc1Br)C(C)(C)O (mixture of isomers)
output: F

input: Answer whether pIC50 of C[C@@H](Nc1nc(Nc2ccc(S(=N)(=O)C3CCCC3)cc2)ncc1Br)C(C)(C)O (mixture of isomers) is greater than or equal to 7.
output: T

====

- target: CDK1/CycB (Homo sapiens, UniProt P06493)
- Construct: GST
- test.name: CDK1/CycB Kinase Assay
- measurement.context: histone IIIS substrate, 33P-ATP, 15 minutes at 22° C.
Kindly supply the reported pIC50 values for the records listed here.
Numbers only, as −log10 of the molar value.

Use these answered entries as a reference point.
CN=S(C)(=O)c1ccc(Nc2ncc(Br)c(N[C@H](C)[C@@H](C)O)n2)cc1 (mixture of isomers) [Example 1.28] : 7.85
CCOC(=O)N=S(=O)(CC)c1ccc(Nc2ncc(Br)c(N[C@H](C)C(C)(C)O)n2)cc1 (mixture of isomers) : 7.02
CCC(CO)Sc1nc(Nc2ccc(S(C)(=N)=O)cc2)ncc1Br (racemic) : 7.31
CC(Sc1nc(Nc2ccc(S(C)(=N)=O)cc2)ncc1Br)C(C)(C)O (racemic) : 7.72
COC[C@@H](Nc1nc(Nc2ccc(S(C)(=N)=O)cc2)ncc1Br)[C@@H](C)O (mixture of isomers) [Example 1.47] : 7.57

Respectfully, I request pIC50 for each entry included below.
1. CCOC(=O)N=S(=O)(CC)c1ccc(Nc2ncc(Br)c(N[C@H](C)[C@@H](C)O)n2)cc1 (mixture of isomers)
2. CCOC(=O)N=S(=O)(CC)c1ccc(Nc2ncc(Br)c(N[C@H](COC)[C@@H](C)O)n2)cc1 (mixture of isomers)
3. CC(O)CSc1nc(Nc2ccc(S(C)(=N)=O)cc2)ncc1Br (racemic)

output:
7.37
6.70
7.14

====

- target: CDK1/CycB (Homo sapiens, UniProt P06493)
- Construct: GST; purchased ProQinase GmbH, Freiburg; host or cells: baculovirus-infected insect cells (Sf9)
- test.name: CDK1/CycB Kinase Assay
- Assay type: biochemical
- measurement.context: histone IIIS substrate, 33P-ATP, 15 minutes at 22° C.
measured.attribute: IC50 (nM)
Answers are plain numbers, in nM.

Completed entries (count: 5):
CC(O)C(C)Sc1nc(Nc2ccc(S(C)(=N)=O)cc2)ncc1Br (racemic) [Example 3.5] : 17
CN=S(C)(=O)c1ccc(Nc2ncc(Br)c(N[C@H](C)[C@@H](C)O)n2)cc1 (mixture of isomers) [Example 1.29] : 7
COC[C@@H](Nc1nc(Nc2ccc(S(C)(=N)=O)cc2)ncc1Br)[C@@H](C)O (mixture of isomers) [Example 1.46] : 11
CCC(Sc1nc(Nc2ccc(S(C)(=N)=O)cc2)ncc1Br)C(C)O (racemic) [Example 3.6] : 22
CCOC(=O)N=S(=O)(CC)c1ccc(Nc2ncc(Br)c(O[C@H](C)[C@@H](C)O)n2)cc1 (mixture of isomers) [Example 1.39] : 49

Answer for every listed entry: what is its IC50? The entries follow.
1. C[C@H](CO)Nc1nc(Nc2ccc(S(C)(=N)=O)cc2)ncc1Br (mixture of isomers) [Example 1.0]
2. CC(C)(O)CSc1nc(Nc2ccc(S(C)(=N)=O)cc2)ncc1Br (racemic) [Example 3.9]
3. C[C@@H](Nc1nc(Nc2ccc(S(=N)(=O)C3CC3)cc2)ncc1Br)C(C)(C)O (mixture of isomers) [Example 1.6]
4. C[C@@H](O)[C@@H](C)Oc1nc(Nc2ccc(S(=O)(CCO)=NS(=O)(=O)CC[Si](C)(C)C)cc2)ncc1Br (mixture of isomers) [Example 1.20]
5. CC(CO)Sc1nc(Nc2ccc(S(C)(=N)=O)cc2)ncc1Br (racemic) [Example 3.10]
6. C[C@@H](O)[C@@H](C)Oc1nc(Nc2ccc(S(C)(=N)=O)cc2)ncc1Br (mixture of isomers) [Example 1.4]

output:
79
55
14
160
18
13
